Sourced from PubChem BioAssay AID1851

- tgt: Cytochrome P450 1A2 (Homo sapiens)
- experiment: Cytochrome panel assay with activity outcomes
- runConditions: recombinant CYP, pro-luciferin dealkylation, luminescence, p450-cyp1a2; series mostly up to 57.1 µM
Out of some 16,000 compounds screened, about 5,700 (36%) were called active. Inconclusive results (about 24%) are left out. The call rests on the fitted dose curve; in most records, active means well fitted curve in the direction sought with a large enough effect; inconclusive means small, poorly fitted or top-dose-only effect, or effect the other way; inactive means no such curve, though single readings can be large or run the other way. This is one part of the list.
Possible outcomes: yes (1) (active), no (0) (inactive)

compound=O=C(c1csnn1)N1CCC2(CC1)CN(Cc1cc(C(F)(F)F)cc(C(F)(F)F)c1)C2 classification="no (0)"
compound=C=Cc1c(C)c2cc3[nH]c(cc4nc(cc5nc(cc1[nH]2)C(C)=C5CCC(=O)O)C(CCC(=O)O)=C4C)c(C)c3C=C classification="yes (1)"
compound=Cc1ccc(S(=O)(=O)c2c(C)nn(C(C)(C)C)c2OC(=O)c2cccs2)cc1 classification="no (0)"
compound="C=Cc1c(C)c2cc3nc(cc4[nH]c(cc5nc(cc1[nH]2)C(C)=C5CCC(=O)O)c(CCC(=O)OC)c4C)[C@@]1(C)C3=CC=C(C(=O)OC)[C@H]1C(=O)OC (tested in a mixture with another compound)" classification="yes (1)"
